IC50: recorded values
Test system: A549 cells
Assay Comment: in vitro antiproliferation assay, A549 (lung)
Type: cell-based
Condition Notes: Table 5; in vitro antiproliferation, A549 (lung) cells

Worked set:
>  <Smiles Notation>
OCc1cc(CO)cc(Nc2ncc(F)c(Nc3ccc4c(c3)OCCO4)n2)c1

>  <Tested System>
A549 cells

>  <IC50>
≤ 20 µM

$$$$
>  <Smiles Notation>
OCCOc1ccc(Nc2ncc(F)c(Nc3ccc4c(c3)OCCO4)n2)cc1

>  <Tested System>
A549 cells

>  <IC50>
≤ 20 µM

$$$$
>  <Smiles Notation>
O=C(COc1cccc(Nc2ncc(F)c(Nc3ccc4c(c3)OCCO4)n2)c1)N1CCOCC1

>  <Tested System>
A549 cells

>  <IC50>
< 20 µM

$$$$
>  <Smiles Notation>
CCOC(=O)COc1cccc(Nc2ncc(F)c(Nc3ccc4c(c3)OCCO4)n2)c1

>  <Tested System>
A549 cells

>  <IC50>
> 20 µM

$$$$
>  <Smiles Notation>
COc1cc(Nc2ncc(F)c(N(C)c3ccc4c(c3)OCCO4)n2)cc(OC)c1

>  <Tested System>
A549 cells

>  <IC50>
≤ 20 µM

$$$$
>  <Smiles Notation>
Cc1cc(Nc2ncc(F)c(Nc3ccc4c(c3)OCCO4)n2)cc(C(F)(F)F)c1

>  <Tested System>
A549 cells

>  <IC50>
> 20 µM

$$$$
>  <Smiles Notation>
Cc1cc(C)cc(Nc2ncc(F)c(Nc3ccc4c(c3)OCCO4)n2)c1

>  <Tested System>
A549 cells

>  <IC50>
≤ 20 µM

$$$$
>  <Smiles Notation>
Cc1cc(Nc2ncc(F)c(Nc3ccc4c(c3)OC(F)(F)O4)n2)cc(C)c1Cl

>  <Tested System>
A549 cells

>  <IC50>
> 20 µM

$$$$

IC50 lookup needed for `Fc1cnc(Nc2cc(-c3ncco3)cc(C(F)(F)F)c2)nc1Nc1ccc2c(c1)OCCO2` , thanks. ≤ 20 µM
